# credit: patent US20240285808A1

Reported r1, +BSA by item:
Target: bovine serum albumin (BSA) (Bos taurus)
Sequence (P02769 25-607): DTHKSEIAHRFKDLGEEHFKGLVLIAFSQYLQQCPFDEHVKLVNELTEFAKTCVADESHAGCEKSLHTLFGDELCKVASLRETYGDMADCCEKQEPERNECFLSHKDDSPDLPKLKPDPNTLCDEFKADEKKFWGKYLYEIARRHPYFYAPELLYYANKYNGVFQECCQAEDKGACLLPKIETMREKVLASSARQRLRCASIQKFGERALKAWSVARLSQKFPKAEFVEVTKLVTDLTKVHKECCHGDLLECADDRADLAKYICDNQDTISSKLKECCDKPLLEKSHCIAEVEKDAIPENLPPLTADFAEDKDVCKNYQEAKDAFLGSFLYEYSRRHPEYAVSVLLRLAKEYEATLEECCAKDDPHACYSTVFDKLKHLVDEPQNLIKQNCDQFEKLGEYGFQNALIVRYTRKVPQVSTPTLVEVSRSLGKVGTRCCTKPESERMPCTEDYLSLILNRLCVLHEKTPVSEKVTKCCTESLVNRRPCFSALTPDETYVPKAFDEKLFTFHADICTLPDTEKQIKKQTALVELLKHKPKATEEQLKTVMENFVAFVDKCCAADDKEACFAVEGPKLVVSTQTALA
Assay: Relaxivity measurements with BSA
Assay type: binding
Conditions: 1.4 T, 37° C., BSA 10 mg/mL
Description: BSA-ALD (10 mg/mL) or BSA (10 mg/mL) were treated for 24 hours at 37° C. with the corresponding Gd or Mn complex at a range of concentrations (0.01-0.2 mM), with a total volume of 300 μL maintained for all samples. After 24 hours, an aliquot of the solution (50 μL) was used for longitudinal (T1) relaxation measurements, recorded using a Bruker mq60 Minispec at 1.41 T and 37° C. […] Relaxivity (r1) was determined from the slope of a plot of 1/T1 vs metal concentration for 5 concentrations.

{"molecule": "CCCCN1CCN(CCCC(=O)N2CCN(N)CC2)CCN(CC(=O)[O-])CCN(CC(=O)[O-])CC1.[Mn+2] [Mn-13]", "displayUnit": "mM⁻¹ s⁻¹", "r1, +BSA": 1.9}
{"molecule": "NN1CCN(C(=O)CCC(C(=O)[O-])N2CCN(CC(=O)[O-])CCN(CC(=O)[O-])CCN(C(CCC(=O)N3CCNCC3)C(=O)[O-])CC2)CC1.[Gd+3] (stereo not drawn) [Gd-11]", "displayUnit": "mM⁻¹ s⁻¹", "r1, +BSA": 6.2}
{"molecule": "NN1CCN(C(=O)CCCN2CCN(CCCC(=O)N3CCN(N)CC3)CCN(CC(=O)[O-])CCN(CC(=O)[O-])CC2)CC1.[Mn+2] [Mn-12]", "displayUnit": "mM⁻¹ s⁻¹", "r1, +BSA": 2.2}
{"molecule": "NN1CCN(C(=O)CCC(C(=O)[O-])N2CCN(CC(=O)[O-])CCN(C(CCC(=O)N3CCN(N)CC3)C(=O)[O-])CCN(CC(=O)[O-])CC2)CC1.[Gd+3] (stereo not drawn) [Gd-10, trans-1,7-Gd-(CHyd)2]", "displayUnit": "mM⁻¹ s⁻¹", "r1, +BSA": 6.6}
{"molecule": "NNC(CCC(=O)NCCCN1CCN(CC(=O)[O-])Cc2cccc(n2)CN(CC(=O)[O-])CC1)C(=O)O.[Mn+2] (stereo not drawn) [Mn-15]", "displayUnit": "mM⁻¹ s⁻¹", "r1, +BSA": 3.6}
{"molecule": "NNC(=O)CCCN1CCN(CCCC(=O)NN)CCN(CC(=O)[O-])CCN(CC(=O)[O-])CC1.[Mn+2] [Mn-14]", "displayUnit": "mM⁻¹ s⁻¹", "r1, +BSA": 1.8}

----------
Reported Biodistribution, Stomach by item:
experiment: Biodistribution of ^nat/52Mn-based probes in naïve mice; type: in vivo, mouse; conditions: 24 h post injection
assayEndpoint: Biodistribution, Stomach (% ID/g)

{"molecule": "NNC(CCC(=O)NCCCN1CCN(CC(=O)[O-])Cc2cccc(n2)CN(CC(=O)[O-])CC1)C(=O)O.[Mn+2] (stereo not shown) [Mn-15]", "assayEndpoint": "Biodistribution, Stomach", "resultNumber": 0.0759}
{"molecule": "CN(C)C(CCC(=O)NCCCN1CCN(CC(=O)[O-])Cc2cccc(n2)CN(CC(=O)[O-])CC1)C(=O)O.[Mn+2] (stereo not shown) [Mn-18]", "assayEndpoint": "Biodistribution, Stomach", "resultNumber": 0.0477}
{"molecule": "NNCC(=O)NCCCN1CCN(CC(=O)[O-])Cc2cccc(n2)CN(CC(=O)[O-])CC1.[Mn+2] [Mn-17]", "assayEndpoint": "Biodistribution, Stomach", "resultNumber": 0.0681}
{"molecule": "NOC(CCC(=O)NCCCN1CCN(CC(=O)[O-])Cc2cccc(n2)CN(CC(=O)[O-])CC1)C(=O)O.[Mn+2] (stereo not shown) [Mn-16]", "assayEndpoint": "Biodistribution, Stomach", "resultNumber": 0.1638}

----------
assay: Biodistribution of ^nat/52Mn-based probes in naïve mice; format: in vivo, mouse; settings: 24 h post injection

{"molecule": "CN(C)C(CCC(=O)NCCCN1CCN(CC(=O)[O-])Cc2cccc(n2)CN(CC(=O)[O-])CC1)C(=O)O.[Mn+2] (stereo not shown)", "Biodistribution, Liver, % ID/g": 0.1833}
{"molecule": "NOC(CCC(=O)NCCCN1CCN(CC(=O)[O-])Cc2cccc(n2)CN(CC(=O)[O-])CC1)C(=O)O.[Mn+2] (stereo not shown)", "Biodistribution, Liver, % ID/g": 0.3950}
{"molecule": "NNCC(=O)NCCCN1CCN(CC(=O)[O-])Cc2cccc(n2)CN(CC(=O)[O-])CC1.[Mn+2]", "Biodistribution, Liver, % ID/g": 0.2125}
{"molecule": "NNC(CCC(=O)NCCCN1CCN(CC(=O)[O-])Cc2cccc(n2)CN(CC(=O)[O-])CC1)C(=O)O.[Mn+2] (stereo not shown)", "Biodistribution, Liver, % ID/g": 0.2186}

----------
target: bovine serum albumin (BSA) (Bos taurus); experiment: Relaxivity measurements with BSA; assay type: binding; conditions: 1.4 T, 37° C., BSA 10 mg/mL
assayEndpoint: r1, +BSA (mM⁻¹ s⁻¹)

{"compound": "CN(C)C(CCC(=O)NCCCN1CCN(CC(=O)[O-])Cc2cccc(n2)CN(CC(=O)[O-])CC1)C(=O)O.[Mn+2] (stereo not drawn)", "assayEndpoint": "r1, +BSA", "resultNumber": 3.5}
{"compound": "NNCC(=O)NCCCN1CCN(CC(=O)[O-])Cc2cccc(n2)CN(CC(=O)[O-])CC1.[Mn+2]", "assayEndpoint": "r1, +BSA", "resultNumber": 3.5}
{"compound": "NOC(CCC(=O)NCCCN1CCN(CC(=O)[O-])Cc2cccc(n2)CN(CC(=O)[O-])CC1)C(=O)O.[Mn+2] (stereo not drawn)", "assayEndpoint": "r1, +BSA", "resultNumber": 3.4}

----------
target: BSA-ALD (oxidized bovine serum albumin containing allysine aldehyde groups) (Bos taurus); construct: made in house; host or cells: no expression host: BSA oxidised chemically with sodium ascorbate, ferric chloride and H2O2, then desalted on PD-10; assay: Relaxivity measurements with BSA-Ald; assay type: binding; details: 1.4 T, 37° C., BSA-Ald 10 mg/mL
Sequence (P02769 25-607): as above
Reported r1, +BSA-Ald by item:

{"compoundStructureString": "NNCC(=O)NCCCN1CCN(CC(=O)[O-])Cc2cccc(n2)CN(CC(=O)[O-])CC1.[Mn+2]", "r1, +BSA-Ald": "5.6 mM⁻¹ s⁻¹"}
{"compoundStructureString": "NN1CCN(C(=O)CCCN2CCN(CCCC(=O)N3CCN(N)CC3)CCN(CC(=O)[O-])CCN(CC(=O)[O-])CC2)CC1.[Mn+2]", "r1, +BSA-Ald": "4.5 mM⁻¹ s⁻¹"}
{"compoundStructureString": "CCCCN1CCN(CCCC(=O)N2CCN(N)CC2)CCN(CC(=O)[O-])CCN(CC(=O)[O-])CC1.[Mn+2]", "r1, +BSA-Ald": "2.3 mM⁻¹ s⁻¹"}

----------
assay: Biodistribution of ^nat/52Mn-based probes in naïve mice; format: in vivo, mouse; conditions: 24 h post injection
Reported Biodistribution, Heart by item:

{"molecule": "CN(C)C(CCC(=O)NCCCN1CCN(CC(=O)[O-])Cc2cccc(n2)CN(CC(=O)[O-])CC1)C(=O)O.[Mn+2] (stereo not shown)", "displayUnit": "% ID/g", "Biodistribution, Heart": 0.0364}
{"molecule": "NNC(CCC(=O)NCCCN1CCN(CC(=O)[O-])Cc2cccc(n2)CN(CC(=O)[O-])CC1)C(=O)O.[Mn+2] (stereo not shown)", "displayUnit": "% ID/g", "Biodistribution, Heart": 0.0532}
{"molecule": "NOC(CCC(=O)NCCCN1CCN(CC(=O)[O-])Cc2cccc(n2)CN(CC(=O)[O-])CC1)C(=O)O.[Mn+2] (stereo not shown)", "displayUnit": "% ID/g", "Biodistribution, Heart": 0.1579}
{"molecule": "NNCC(=O)NCCCN1CCN(CC(=O)[O-])Cc2cccc(n2)CN(CC(=O)[O-])CC1.[Mn+2]", "displayUnit": "% ID/g", "Biodistribution, Heart": 0.0675}

----------
experiment: Biodistribution of ^nat/52Mn-based probes in naïve mice; format: in vivo, mouse; conditions: 24 h post injection

{"molecule": "NNCC(=O)NCCCN1CCN(CC(=O)[O-])Cc2cccc(n2)CN(CC(=O)[O-])CC1.[Mn+2]", "Biodistribution, Bone": "0.0414 % ID/g"}
{"molecule": "NOC(CCC(=O)NCCCN1CCN(CC(=O)[O-])Cc2cccc(n2)CN(CC(=O)[O-])CC1)C(=O)O.[Mn+2] (stereo not shown)", "Biodistribution, Bone": "0.1378 % ID/g"}
{"molecule": "NNC(CCC(=O)NCCCN1CCN(CC(=O)[O-])Cc2cccc(n2)CN(CC(=O)[O-])CC1)C(=O)O.[Mn+2] (stereo not shown)", "Biodistribution, Bone": "0.0385 % ID/g"}
{"molecule": "CN(C)C(CCC(=O)NCCCN1CCN(CC(=O)[O-])Cc2cccc(n2)CN(CC(=O)[O-])CC1)C(=O)O.[Mn+2] (stereo not shown)", "Biodistribution, Bone": "0.0227 % ID/g"}
